The values you see were collected from PubChem BioAssay (NCATS).

Assay: Cellular viability qHTS for adrenocortical cancer (ACC) cell line SW-13 (AID 1963989);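 note: cells grown in serum-free medium with ITS supplement; % is set by controls: 0 for no effect and ±100 for the full control effect; nearly all actives have a fitted effect of over 65% in size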
Conditions: SW-13 ACC cells viability, CellTiter-Glo, 48 h; active compounds read low
Records with an inconclusive call do not appear.
activity (max response) by entry:
I only need the number, in %, no unit after it.

# count of solved cases: 2
| compound | property | unitsText | readoutValue |
| --- | --- | --- | --- |
| O=[N+]([O-])c1ccc(/C=N\O)o1 | activity (max response) | % | -5.61 |
| C[C@H]1CC2[C@@H]3CCC4=CC(=O)C=C[C@]4(C)[C@@]3(F)[C@@H](O)C[C@]2(C)[C@@]1(O)C(=O)CO (some centres undefined) | activity (max response) | % | -7.86 |

Task item: Would you kindly share the measured activity (max response) for CC1=C(CC(=O)O)c2cc(F)ccc2C1=Cc1ccc(S(C)=O)cc1 (centres undefined) ?
Reply: 10.2

Task item: # get_value(readout='activity (max response)', item= `Cc1noc(NS(=O)(=O)c2ccc(N)cc2)c1C` )
Reply: -8.37
